- Test system: KM12
- Procedure text: NCI tumour cell line growth inhibition, 48 h
Active and inactive are the calls of the source. Cut-off read from the data, not from the text of the source: active = GI50 up to about 1.1 µM and inactive = higher.
For each of the compounds below, state its GI50.

Solved cases below.
COc1ccc2c3c1OC1C34CCN(C)C(C2)C4=CC(I)C1(OC)OC (stereo unspecified)
14.4 µM (inactive)
CCOC(=O)C(Sc1ccccc1)c1c(OC)cc(=O)oc1/C=[N+](/[O-])c1ccc(N(C)C)cc1 (stereo unspecified)
21.7 µM (inactive)
C=CC1(c2ccc(OC)cc2)OCCCO1
> 100 µM (inactive)
O=Cc1cc([N+](=O)[O-])no1
18.7 µM (inactive)
COC(=O)C1C2CC3C(OC(=O)C31)C2OC(=O)[C@](OC)(c1ccccc1)C(F)(F)F (stereo partly specified)
> 100 µM (inactive)
O=C(c1ccccc1)c1c2ccccn2c2cccc[n+]12
> 100 µM (inactive)

Batch of 5 compounds: report GI50 for each.
1. CSc1nc(Cl)c2c(n1)Sc1nc3ccccc3n1C2O (stereo unspecified)
2. CC(SC(=S)N1CCOCC1)C(=O)Nc1nnc(-c2ccccc2)o1 (stereo unspecified)
3. CCn1c2ccccc2n2c(=O)c3c(c(C#N)c12)CCCC3
4. O=C1CCc2cc3c(cc21)CC1(Cc2cc4c(cc2C1)CCCC4)C3
5. C=C(C)C(=O)OC1CC2(C)OC2CC(OC(C)=O)/C(C)=C/C2OC(=O)C(=C)C21 (stereo unspecified)

["3.44 µM (inactive)", "> 100 µM (inactive)", "> 100 µM (inactive)", "51.2 µM (inactive)", "11.2 µM (inactive)"]

* * *

For each of the compounds below, state its GI50.
- Test system: SR
- Procedure text: NCI tumour cell line growth inhibition, 48 h
The source made the active and inactive calls. Rule as the data show it: active = GI50 up to about 1.1 µM and inactive = higher.

Solved cases below.
CC(=O)Nc1ncc(Sc2ccccc2C(=O)O)s1
> 100 µM (inactive)
CCN(CC)CSc1nc2ccccc2o1
> 100 µM (inactive)
COc1ccc(C(OCC2OC(n3ccc(Oc4c(F)c(F)c(F)c(F)c4F)nc3=O)CC2OP(OCCC#N)N(C(C)C)C(C)C)(c2ccccc2)c2ccc(OC)cc2)cc1 (stereo not given)
> 100 µM (inactive)
COC(=O)N/N=C(\C)c1sc(-c2nc(C)c(/C(C)=N/NC(=O)OC)s2)nc1C
20.7 µM (inactive)
CCOc1ccc(NCC2CC/C(=C\c3ccc(O)cc3)C2=O)cc1 (stereo not given)
2.19 µM (inactive)
O=C(CSc1nc2ccc(I)cc2c(=O)n1Cc1ccccc1)N/N=C/c1ccccc1
13.5 µM (inactive)
N#Cc1c(/C=C/c2ccccc2)c2c([nH]c1=S)CCCCC2
84.7 µM (inactive)
O=C1CNc2cc(N3CCN(c4cccc(C(F)(F)F)c4)CC3)ccc2N1
46.3 µM (inactive)

Batch of 2 compounds: report GI50 for each.
1. [N-]=[N+]=NCC(=O)c1cnc(O)nc1O
2. COc1cc(/C=C2\Sc3scc(-c4cccc([N+](=O)[O-])c4)[n+]3C2=O)cc(OC)c1OC

["> 100 µM (inactive)", "2.05 µM (inactive)"]

* * *

For each of the molecules below, state its GI50.
- Test system: NCI-H23
- Procedure text: NCI tumour cell line growth inhibition, 48 h
The source made the active and inactive calls. Cut-off read from the data, not from the text of the source: active = GI50 up to about 1.1 µM and inactive = higher.

Cc1ccc2nc(CN(CCO)CCO)cc(=O)n2c1
> 100 µM (inactive)
CCN(CC)CSc1nc2ccccc2o1
> 100 µM (inactive)
C=CC1(c2ccc(OC)cc2)OCCCO1
> 100 µM (inactive)
CCOC(=O)/C=C/[C@@H](CC)O[Si](C(C)C)(C(C)C)C(C)C
> 100 µM (inactive)
CCOC(=O)c1cc(Sc2ccc(N)c(C(=O)OCC)c2)ccc1N
25.3 µM (inactive)
CCCCS(=O)(=O)CCC(N)P(=O)(O)O (stereo unspecified)
> 100 µM (inactive)
FC(F)(Sc1ncccn1)c1nc2ccccc2o1
> 100 µM (inactive)
CC(=O)OCC1OC(OC2CC3C(C)(C)C(=O)CC[C@]3(C)C3CC[C@]45C[C@]4(CCC5[C@@H](C)CC(O)C(O)C(C)(C)O)[C@]23C)C(O)C(O)C1O (stereo partly specified)
17.5 µM (inactive)
S=c1[nH]nc(Cc2ccccc2)c(=S)[nH]1
> 64.4 µM (inactive)
O=C1NN(Cc2ccccc2)C(=O)N2CCC[C@@H]12
> 100 µM (inactive)

Suppose we examine the molecule COc1cc(/C=C2\Sc3scc(-c4cccc([N+](=O)[O-])c4)[n+]3C2=O)cc(OC)c1OC ; what GI50 value has been reported?
15.1 µM (inactive)

* * *

- System: HCC 2998
- Procedure text: NCI tumour cell line growth inhibition, 48 h
Calls of active or inactive are those of the source. Rule as the data show it: active = GI50 up to about 1.1 µM and inactive = higher.
Form entry, call: pick from active, inactive

O=c1[nH]c2ccc(O)cc2o1
inactive
ON1CCc2c([nH]c3ccccc23)C1c1ccc(Cl)cc1 (configuration not stated)
inactive
Fc1cccc2nc(-c3ccccc3)cc(OCc3ccccc3)c12
inactive
CC(C)C(Br)CCC1=CCC(Br)(Br)C1 (configuration not stated)
inactive
Cc1c2cccc(Sc3ccccc3)c2c2c3c(cccc13)[S+](c1ccccc1)C2 (configuration not stated)
inactive

Give the logged outcome of this assay for the following compound: COc1cc(-c2nc(SC)nc3c2CCc2ccccc2-3)cc(OC)c1OC
inactive

Continue with CC12CCC(C(=O)OC1=O)C2(C)C (configuration not stated)
inactive

Continue with Cc1cccc2c1nc1n2C(=O)c2ccccc2-1
inactive

Continue with Cc1ccc2c(c1)SC1=Nc3sc4cc(C)ccc4[n+]3CN12
inactive

Continue with Oc1ccc(O)c(Sc2nnc(CCCCCCCCc3nnc(Sc4cc(O)ccc4O)o3)o2)c1
inactive

Continue with COC(=O)C1(C(=O)OC)N=C(C)OC1c1ccoc1 (configuration not stated)
inactive

Continue with CC(C)(C)c1ccc(S(=O)(=O)N2C(c3cccc(C4CC[C@@H](C(=O)O)N4S(=O)(=O)c4ccc(C(C)(C)C)cc4)c3)CC[C@H]2C(=O)O)cc1 (some centres not stated)
inactive

Continue with COCN1C(=O)[C@@H]2CCCN2C(=O)c2ccc([N+](=O)[O-])cc21
inactive

Continue with O=C1CCc2cc3c(cc21)CC1(Cc2cc4c(cc2C1)CCCC4)C3
inactive

Continue with CN(/N=N/c1[nH]cnc1C(N)=O)C1CCCCC1
inactive

Continue with COc1ccc(C(N)=O)c(OC)c1OCc1ccccc1
inactive

Continue with Cc1ccc(NC(=O)CC(=O)n2nc(C)c(/N=N/c3ccc(S(=O)(=O)CCOS(=O)(=O)O)cc3)c2C)cc1
inactive

Continue with COC(=O)C(Cc1c[nH]c2ccccc12)NC(=O)C(Cc1c[nH]cn1)NC(=O)C1CCC(=O)N1C(=O)OCc1ccccc1 (configuration not stated)
inactive

Continue with CC1OC(OP(=O)(OCc2ccccc2)OCc2ccccc2)C(OC(=O)c2ccccc2)C(OC(=O)c2ccccc2)C1I (configuration not stated)
inactive

Continue with O=C(NC/C=C/CO)c1ccccc1
inactive

Continue with NC(=O)OCc1c(-c2ccccc2)nn(-c2ccccc2)c1COC(N)=O
inactive

Continue with C[C@H](CCC(=O)O)[C@H]1CC[C@H]2[C@@H]3[C@@H](O)C[C@@H]4C[C@H](O)CC[C@]4(C)[C@H]3CC[C@]12C
inactive

Continue with CC1=C(C(=O)Nc2ccccc2)C(c2ccccc2Cl)C(C(=O)Nc2ccccc2)=C(C)N1
inactive

Continue with COc1cccc(-n2c3nc(=O)n(C)c(=O)c-3nc3ccccc32)c1
inactive

Continue with Cc1cccc(C)c1NC(=O)C1=NC(=S)NC(c2ccccc2)C1c1nc2ccccc2s1 (configuration not stated)
inactive

Continue with COc1ccc(CC2C3=C(CCCC3)CCN2C)cc1 (configuration not stated)
inactive

Continue with O=C(CC1(O)C(=O)Nc2c(Cl)cccc21)c1ccccc1 (configuration not stated)
inactive

Continue with CC(O)(c1ccccc1)c1nccc2ccccc12 (configuration not stated)
inactive

* * *

For each of the compounds below, state its GI50.
- Tested on: NCI-H23
- Procedure text: NCI tumour cell line growth inhibition, 48 h
The source made the active and inactive calls. Cut-off read from the data, not from the text of the source: active = GI50 up to about 1.1 µM and inactive = higher.

Solved cases below.
C[C@@H](CC(O)C1OC1(C)C)[C@@H]1CC[C@]2(C)C3=CCC4C(C)(C)C(O)CC[C@]4(C)C3CCC12C (some centres undefined)
19.1 µM (inactive)
Cc1cc(-c2nc3ccccc3s2)ccc1NC(=O)[C@H](C)N
16.5 µM (inactive)
CCCCCCCCCCCCCCCCCCNc1nc(=O)n(C2CC(O)C(COP(=O)(O)OCC3OC(n4ccc(N)nc4=O)C(O)C3O)O2)cc1F (centres undefined)
16 µM (inactive)
O=C(c1ccccc1)N(CCCCNC(=O)C(F)(F)F)CCCNC(=O)C(F)(F)F
> 100 µM (inactive)
N#CC(C#N)=C/C=C(\Sc1c(Cl)c(Cl)nc(Cl)c1Cl)c1ccc(Cl)cc1
16.2 µM (inactive)

Batch of 2 compounds: report GI50 for each.
1. Cc1ccc2c(c1)-c1c3c(nn1-c1ccccc1)-c1ccccc1SC3O2 (centres undefined)
2. Cc1cccc2c1C(=O)C(C1OC(=O)c3ccccc31)C2 (centres undefined)

> 100 µM (inactive)
> 100 µM (inactive)

Batch of 2 compounds: report GI50 for each.
1. NC(=O)c1ncn(CCN2CCN(C(=O)NCCCCCCNC(=O)N3CCN(CCn4cnc(C(N)=O)c4N)CC3)CC2)c1N
2. CN(C)CCC(/C=C/c1ccccc1)=N\Nc1ccccc1

> 100 µM (inactive)
3.97 µM (inactive)
